- Assay System: UniProt O95622
- Assay Procedure: Inhibitory activity against recombinant human adenylate cyclase 5 expressed in HEK293 cells.
pIC50: −log10 of the molar value.
Quantity Kind: pIC50

Solved entries (count: 3):
Nc1ncnc2c1ncn2[C@H]1CC[C@@H](CC(=O)NO)C1	4.60
Nc1ncnc2c1ncn2[C@@H]1CC[C@@H](CC(=O)NO)C1	6.22
Nc1ncnc2c1ncn2[C@H]1CC[C@H](C(=O)NO)C1 (single isomer, unassigned)	6.70

P = Nc1ncnc2c1ncn2[C@H]1CC[C@H](OCC(=O)NO)C1
Q = Nc1ncnc2c1ncn2[C@@H]1C=C[C@H](CC(=O)O)C1
Q: Lowest pIC50? choose P or Q Respond with the label that goes with your answer.
Ans: Q
(Q: 4.14, P: 4.97)

I = Nc1ncnc2c1ncn2[C@H]1C=C[C@@H](CC(=O)NO)C1
II = Nc1ncnc2c1ncn2[C@H]1CC[C@H](CC(=O)NO)C1
III = Nc1ncnc2c1ncn2[C@@H]1C=C[C@H](CC(=O)NO)C1
IV = Nc1ncnc2c1ncn2[C@@H]1CC[C@@H](CC(=O)O)C1
V = Nc1ncnc2c1ncn2[C@H]1C=C[C@@H](C(=O)NO)C1
Q: Sequence the entries by pIC50, beginning with the highest number. Returns: the labels arranged in the requested order.
Ans: III, II, I, IV, V
(III: 5.59, II: 5.03, I: 4.79, IV: 4.54, V: 3.73)

A = Nc1ncnc2c1ncn2[C@H]1C=C[C@H](OCC(=O)NO)C1
B = Nc1ncnc2c1ncn2[C@H]1C=C[C@H](CC(=O)O)C1
Q: Recorded pIC50 values differ for A and B ; which one is higher? Respond with the label that goes with your answer.
Ans: B
(B: 5.09, A: 4.87)

* * *

- Assay System: Adenylate cyclase type 5 (Homo sapiens)
- Sequence (O95622 whole entry): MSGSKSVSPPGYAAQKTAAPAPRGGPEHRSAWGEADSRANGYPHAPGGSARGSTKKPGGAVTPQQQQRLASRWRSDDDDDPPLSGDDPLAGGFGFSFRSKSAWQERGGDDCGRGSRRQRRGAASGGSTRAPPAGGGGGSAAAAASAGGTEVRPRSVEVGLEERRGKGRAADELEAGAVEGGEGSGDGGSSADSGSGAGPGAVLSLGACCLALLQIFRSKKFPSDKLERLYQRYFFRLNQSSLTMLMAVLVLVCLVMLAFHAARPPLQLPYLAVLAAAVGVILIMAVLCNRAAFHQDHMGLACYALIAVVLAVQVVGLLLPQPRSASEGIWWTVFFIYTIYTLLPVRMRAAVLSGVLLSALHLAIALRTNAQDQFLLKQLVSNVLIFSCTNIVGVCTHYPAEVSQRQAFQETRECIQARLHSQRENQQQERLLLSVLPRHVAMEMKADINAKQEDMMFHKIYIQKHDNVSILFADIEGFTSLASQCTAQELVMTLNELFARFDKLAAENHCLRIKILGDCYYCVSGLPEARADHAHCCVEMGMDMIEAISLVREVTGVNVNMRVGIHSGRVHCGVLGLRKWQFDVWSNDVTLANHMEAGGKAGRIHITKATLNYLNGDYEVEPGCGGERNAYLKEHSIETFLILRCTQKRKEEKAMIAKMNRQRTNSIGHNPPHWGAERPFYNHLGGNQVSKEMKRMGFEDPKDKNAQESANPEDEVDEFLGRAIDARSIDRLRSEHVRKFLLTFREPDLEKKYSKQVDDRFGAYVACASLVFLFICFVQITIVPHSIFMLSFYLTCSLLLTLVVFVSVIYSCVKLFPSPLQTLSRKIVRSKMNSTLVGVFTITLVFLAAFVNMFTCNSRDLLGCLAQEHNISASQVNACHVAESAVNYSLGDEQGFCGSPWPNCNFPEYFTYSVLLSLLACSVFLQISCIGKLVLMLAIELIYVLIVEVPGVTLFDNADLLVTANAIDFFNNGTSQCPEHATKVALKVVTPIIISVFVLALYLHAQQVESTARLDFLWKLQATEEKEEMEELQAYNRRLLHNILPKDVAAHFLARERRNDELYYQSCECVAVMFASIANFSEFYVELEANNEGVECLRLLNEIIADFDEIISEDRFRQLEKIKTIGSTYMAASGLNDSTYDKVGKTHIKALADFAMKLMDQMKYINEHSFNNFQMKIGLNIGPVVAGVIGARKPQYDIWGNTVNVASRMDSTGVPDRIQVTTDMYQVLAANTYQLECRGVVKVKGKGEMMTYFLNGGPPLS
- Assay Procedure: Inhibitory activity against recombinant human adenylate cyclase 5 expressed in HEK293 cells.
Quantity Kind: IC50 (µM)

Solved entries (count: 5):
Nc1ncnc2c1ncn2[C@@H]1C=C[C@@H](C(=O)NO)C1	100
Nc1ncnc2c1ncn2[C@@H]1CC[C@@H](C(=O)NO)C1 (single isomer, unassigned)	78
Nc1ncnc2c1ncn2[C@@H]1C=C[C@@H](CC(=O)NO)C1	4.3
Nc1ncnc2c1ncn2[C@H]1C=C[C@H](CC(=O)NO)C1	0.4
Nc1ncnc2c1ncn2[C@H]1CC[C@@H](C(=O)NO)C1	4.6

P = Nc1ncnc2c1ncn2[C@H]1C=C[C@H](C(=O)NO)C1
Q = Nc1ncnc2c1ncn2[C@@H]1CC[C@H](CC(=O)NO)C1
Q: Lowest IC50? choose P or Q Respond with the label that goes with your answer.
Ans: P
(P: 4.9 µM, Q: 55 µM)

* * *

- Assay System: Adenylate cyclase type 5 (Homo sapiens)
- Assay Procedure: Inhibitory activity against recombinant human adenylate cyclase 5 expressed in HEK293 cells.
Quantity Kind: IC50

Q: Return value of IC50 for input `Nc1ncnc2c1ncn2[C@H]1C=C[C@@H](CC(=O)O)C1` , no commentary.
Ans: > 200 µM

Q: Return value of IC50 for input `Nc1ncnc2c1ncn2[C@@H]1CC[C@H](CC(=O)O)C1` , no commentary.
Ans: > 200 µM

Q: Return value of IC50 for input `Nc1ncnc2c1ncn2[C@@H]1C=C[C@H](C(=O)NO)C1` , no commentary.
Ans: > 200 µM
